System: HepG2-A16-CD81EGFP cells
Conditions: HepG2, 3 µM compound treatment (10 mM stocks), replicate 1, normalized, average of 2 wells
Measurement type: HepG2 3uM growth rep1 (%)

{"Compound": "Cc1ccc(Nc2cc(C)c3ccc(O)cc3n2)cc1C.Cl [MLS000674791-01]", "Measurement type": "HepG2 3uM growth rep1", "Recorded result": 89}
{"Compound": "CCN(CC)CCN1C(=O)c2ccccc2NC1c1ccc(Br)cc1 (stereo not shown) [MLS000723891-01]", "Measurement type": "HepG2 3uM growth rep1", "Recorded result": 84}
{"Compound": "C=C(C)CSc1nc2sc3c(c2c(=O)n1-c1ccc(C)cc1)CCN(C)C3 [MLS001173676-01]", "Measurement type": "HepG2 3uM growth rep1", "Recorded result": 84}
{"Compound": "CC1(C)Cc2ccccc2C2=NNC(=O)C2=N1 [MLS000709658-01]", "Measurement type": "HepG2 3uM growth rep1", "Recorded result": 90}
{"Compound": "CC1CCN(c2ccc(C(=O)NCc3ccco3)cc2[N+](=O)[O-])CC1 [MLS000389854-01]", "Measurement type": "HepG2 3uM growth rep1", "Recorded result": 88}
{"Compound": "Cc1ccc(-c2cc(C(F)(F)F)n3ncc(C(=O)N4CCCCC4c4cccnc4)c3n2)cc1 (stereo not shown) [MLS000729132-01]", "Measurement type": "HepG2 3uM growth rep1", "Recorded result": 89}
{"Compound": "COc1cccc(NC(=O)CN(C)C(=O)c2ccc(-c3cccc(C(F)(F)F)c3)o2)c1 [MLS001071804-01]", "Measurement type": "HepG2 3uM growth rep1", "Recorded result": 84}
{"Compound": "COc1ccc(C2c3[nH]c4ccccc4c3C[C@H]3C(=O)N(C4CCN(Cc5ccccc5)CC4)CC(=O)N23)cc1OC (stereo partly shown) [MLS001215281-01]", "Measurement type": "HepG2 3uM growth rep1", "Recorded result": 91}
{"Compound": "Cc1nn(-c2ccccc2)c(C)c1/C=N/Nc1nc2ccccc2[nH]1 [MLS000332160-01]", "Measurement type": "HepG2 3uM growth rep1", "Recorded result": 89}
{"Compound": "O=C(N/N=C(/c1ccccc1)c1cccnc1)c1cccc(F)c1 [MLS001224623-01]", "Measurement type": "HepG2 3uM growth rep1", "Recorded result": 30}
{"Compound": "CCOC(=O)C1CCN(C(=O)c2cc(C(C)(C)C)nn2Cc2ccccc2)CC1 [MLS000860456-01]", "Measurement type": "HepG2 3uM growth rep1", "Recorded result": 88}
{"Compound": "CCn1cnc2c(Nc3cc(F)cc(F)c3)nc(C#N)nc21 [MLS002471782-01]", "Measurement type": "HepG2 3uM growth rep1", "Recorded result": 83}
{"Compound": "N#Cc1c(N2CCN(c3ccc(F)cc3)CC2)nc(N)c2c(N)nc3c(c12)CC(=O)N3C1CC1 [MLS001003889-01]", "Measurement type": "HepG2 3uM growth rep1", "Recorded result": 85}

----------
Assay: in vitro
Details: human, HepG2 cells; n = 1
Lab note - cut at 20 µM for CC50 at 48 h: 1 (yes) if strictly below, 0 (no) if not.

{"Compound": "Oc1c(C(Nc2ccccn2)c2ccccc2F)ccc2cccnc12 (stereo not drawn) [NCGC00135751-01]", "Assigned label": "0 (no)"}
{"Compound": "COc1cccc(C(NC(C)=O)c2ccc3cccnc3c2O)c1 (stereo not drawn) [MLS001204096-01]", "Assigned label": "1 (yes)"}
{"Compound": "CC(C)c1cccc(NC(=O)c2ccc(CN3C(=O)NC4(CCOCC4)C3=O)cc2)c1 [NCGC00454607-01]", "Assigned label": "0 (no)"}
{"Compound": "O=C1c2cnc(-c3cc4ccccc4o3)nc2OCCN1c1ccccc1 [NCGC00413607-01]", "Assigned label": "1 (yes)"}
{"Compound": "COc1cnc(-c2ccccn2)nc1Sc1ccc(Cl)cc1 [MLS000325700-01]", "Assigned label": "0 (no)"}
{"Compound": "Cc1[nH]n(-c2ccccc2)c(=O)c1/C=N/Nc1nncc(-c2ccccc2)n1 [MLS000579075-01]", "Assigned label": "1 (yes)"}
{"Compound": "O=C(Nc1nc(-c2ccccn2)cs1)c1ccc(F)c(S(=O)(=O)N2CCOCC2)c1 [MLS002162137-01]", "Assigned label": "1 (yes)"}
{"Compound": "COc1cnc(-c2ccccn2)nc1Sc1ccccc1 [MLS000692209-01]", "Assigned label": "0 (no)"}
{"Compound": "N=c1ccn(CC(=O)c2ccc(-c3ccccc3)cc2)cc1 [MLS000698051-01]", "Assigned label": "0 (no)"}

----------
Test system: HepG2-A16-CD81EGFP cells
Conditions: nominal 3 uM (10 mM stock); 4.5 uM for 15 mM, 3.6 uM for 12 mM, 6 uM for 20 mM stock; average of 2 wells; repeat 2

{"Molecule": "COc1ccc(-c2noc(-c3cccn3CC(=O)Nc3cccc(Cl)c3C)n2)cc1F [NCGC00445510-01]", "HepG2 viability signal, 3 uM, repeat 2, %": 100.27}
{"Molecule": "CCc1cccc(-n2c(=O)c3cccnc3n2CC(=O)NCc2ccccc2)c1 [NCGC00128448-01]", "HepG2 viability signal, 3 uM, repeat 2, %": 100.08}
{"Molecule": "CCOC(=O)C1(Cc2ccccc2C(F)(F)F)CCNCC1 [NCGC00433719-01]", "HepG2 viability signal, 3 uM, repeat 2, %": 103.00}
{"Molecule": "Oc1ccc(CN2CC(CNc3ccccc3)C3(C2)CN(c2ccccc2)C3)cc1 (stereo not drawn) [NCGC00416032-01]", "HepG2 viability signal, 3 uM, repeat 2, %": 99.28}
{"Molecule": "CN1CCN(c2ccc3ncc(Nc4ccccc4-c4ccccc4)n3n2)CC1 [NCGC00412547-01]", "HepG2 viability signal, 3 uM, repeat 2, %": 96.99}
{"Molecule": "COc1ccc(C2C=C(c3ccc(Cl)cc3)Nc3nc(-c4ccc(Cl)cc4)nn32)cc1 (stereo not drawn) [NCGC00100531-01]", "HepG2 viability signal, 3 uM, repeat 2, %": 80.71}
{"Molecule": "CCCN1C(CC(C)C)=N[S+](=O)([O-])c2cc(NC(=O)c3cccs3)ccc21 [NCGC00473217-01]", "HepG2 viability signal, 3 uM, repeat 2, %": 105.41}
{"Molecule": "Oc1ccccc1-c1cc(-c2cccnc2)c2cncn2c1 [NCGC00412170-01]", "HepG2 viability signal, 3 uM, repeat 2, %": 100.05}
{"Molecule": "CCOC(=O)C1(Cc2ccccc2Cl)CCNCC1 [NCGC00430911-01]", "HepG2 viability signal, 3 uM, repeat 2, %": 101.65}

----------
Tested on: P. berghei-ANKA-GFP-LucCON liver stage parasites in HepG2-A16-CD81EGFP cells
Assay: P. berghei liver stage Pb-Luc assay, Method 1 (UCSD, 1536-well)
Assay type: cell-based, Plasmodium berghei
Conditions: Plasmodium berghei, 48 h, P. berghei liver stage, 3 µM compound treatment (10 mM stocks), replicate 2, normalized, average of 2 wells on a 1536 well plate; read-out: PbLuc 3uM growth rep2
Give y when the value for activity at 3 µM is at least 80%. Give n when it is less.

{"Compound": "COc1ccc2[nH]c(C)c(CCN(Cc3cccs3)C(S)=Nc3ccccc3)c2c1", "Assigned label": "y"}
{"Compound": "COc1ccc(Nc2cc(C)nc(NCc3ccccc3)n2)cc1", "Assigned label": "n"}
{"Compound": "CCOC(=O)c1c(NC(=O)C[n+]2ccc(N(C)C)cc2)sc(C)c1C", "Assigned label": "n"}
{"Compound": "CC(NCc1ccccc1O)C12CC3CC(CC(C3)C1)C2 (centres unmarked)", "Assigned label": "y"}
{"Compound": "COc1ccc2nc(N3CCN(C(=O)c4ccc([N+](=O)[O-])o4)CC3)sc2c1", "Assigned label": "y"}
{"Compound": "O=C(c1ccc([N+](=O)[O-])o1)N1CCN(c2nc3c(Cl)cccc3s2)CC1", "Assigned label": "n"}

----------
Quick list: viability at 48 h, 1 µM per entry.
Assay: in vitro
Conditions: human, HepG2-A16-CD81EGFP cells, uninfected

{"Compound": "CCCn1c2c(c(=N)c3c1CCC3)CCC2", "viability at 48 h, 1 µM [%]": 99.2}
{"Compound": "Cc1nn(-c2ccc([N+](=O)[O-])cc2)c2c1C(c1cccc(Br)c1)N1C(=N2)C(=O)Nc2ccccc21 (centres unmarked)", "viability at 48 h, 1 µM [%]": 105}
{"Compound": "COc1ccc(C(C(=O)Nc2ccc(C(C)C)cc2)N(Cc2ccco2)C(=O)CC2NC(=O)NC2=O)cc1 (centres unmarked)", "viability at 48 h, 1 µM [%]": 99}
{"Compound": "COc1ccc(C(CCN2CCN(c3ccccc3)CC2)c2c(O)cc(OC)cc2OC)cc1 (centres unmarked)", "viability at 48 h, 1 µM [%]": 95}
{"Compound": "Oc1cc2c(cc1CN1CCN(c3cccc(C(F)(F)F)c3)CC1)CCC2", "viability at 48 h, 1 µM [%]": 102}
{"Compound": "CC(C)Cc1cc(C(=O)Nc2cc(Br)ccc2O)no1", "viability at 48 h, 1 µM [%]": 120}
{"Compound": "CN1CCN(c2ccc(Nc3ccnc4cc(Cl)ccc34)cc2)CC1", "viability at 48 h, 1 µM [%]": 86}
{"Compound": "Cn1nnnc1SCCCNCc1cccc(OCc2ccccc2)c1", "viability at 48 h, 1 µM [%]": 97.9}
{"Compound": "COc1ccc2cc3cc(C(=O)NCCC(C)C)oc3nc2c1", "viability at 48 h, 1 µM [%]": 101}
{"Compound": "C[C@H]1[C@@H]2[C@H]3OC(=O)[C@@H](C)[C@@H]3CC[C@@]2(C)CC[C@@H]1NC(=O)CC(C)(C)C", "viability at 48 h, 1 µM [%]": 95.8}
{"Compound": "Cc1ccc(/C=N/NC(=O)c2cc3ccccc3cc2O)o1", "viability at 48 h, 1 µM [%]": 97.9}
{"Compound": "CC(Sc1nc2ccccc2c(=O)n1C)C(=O)Nc1ccc2c(c1)OCCO2 (centres unmarked)", "viability at 48 h, 1 µM [%]": 84}
{"Compound": "O=C(Nc1ccc2c(N3CCOCC3)ncnc2c1)c1cccc(Br)c1", "viability at 48 h, 1 µM [%]": 97.9}
{"Compound": "Cc1c(C#N)c2ccccc2n1CCOc1ccccc1F", "viability at 48 h, 1 µM [%]": 100}
{"Compound": "CCCN1CCc2c(sc3nc(SC)n(-c4ccccc4)c(=O)c23)C1", "viability at 48 h, 1 µM [%]": 112}
{"Compound": "c1ccc(CNc2nc(NCc3ccccc3)c3ccccc3n2)cc1", "viability at 48 h, 1 µM [%]": 83}
{"Compound": "CC(OC(=O)CCc1cc(C(C)(C)C)c(O)c(C(C)(C)C)c1)C(=O)NC1CC1 (centres unmarked)", "viability at 48 h, 1 µM [%]": 104}
{"Compound": "CCNc1nc(OC)nc(Oc2ccc(=O)n(-c3ccccc3)n2)n1", "viability at 48 h, 1 µM [%]": 112}
{"Compound": "COc1ccc(NC2=C(c3ccc(OC)cc3)C(=O)c3ccccc32)cc1", "viability at 48 h, 1 µM [%]": 91}
{"Compound": "Nc1cc2ccncc2c2ccccc12", "viability at 48 h, 1 µM [%]": 98}
{"Compound": "Cc1nn2c(c1-c1ccccc1Oc1ccccc1)N(Cc1ccccc1O)CCC2", "viability at 48 h, 1 µM [%]": 104}
{"Compound": "CCc1cc2c(=O)c(-c3cnn(-c4ccccc4)c3)c(C)oc2c(CN2CCCCC2)c1O", "viability at 48 h, 1 µM [%]": 105}
{"Compound": "COc1ccc(-c2noc(-c3cccn3CC(=O)Nc3ccc(C)cc3Cl)n2)cc1F", "viability at 48 h, 1 µM [%]": 99.5}
{"Compound": "N=c1c2c(n(Cc3ccc(F)cc3)c3c1CCC3)CCCC2", "viability at 48 h, 1 µM [%]": 105}
{"Compound": "Oc1cc(Nc2ccc(N3CCCCC3)cc2)cc2cccnc12", "viability at 48 h, 1 µM [%]": 105}
{"Compound": "O=C(O)c1ccc(-c2nc3cnccc3[nH]2)cc1", "viability at 48 h, 1 µM [%]": 105}
{"Compound": "O=C(NCCNc1ccnc2cc(Cl)ccc12)c1ccccc1F", "viability at 48 h, 1 µM [%]": 106}
{"Compound": "COc1ccc(-c2csc3ncnc(Cl)c23)cc1", "viability at 48 h, 1 µM [%]": 86}
{"Compound": "CCCN(CCC)C(=O)Cn1ccc(=N)c2ccccc21", "viability at 48 h, 1 µM [%]": 95}
{"Compound": "CC1=C(C(=O)Nc2ccc(C)cc2C)C(c2cc(Br)ccc2F)n2ncc(C(=O)Nc3ccc(C)cc3)c2N1 (centres unmarked)", "viability at 48 h, 1 µM [%]": 100}
{"Compound": "CCOC(=O)c1ccc(N=C(S)N2CCN(CCNC3=CC(=O)CC(C)(C)C3)CC2)cc1", "viability at 48 h, 1 µM [%]": 96}
{"Compound": "CCC(=O)N1CCc2cc(Br)cc([S+](=O)([O-])N3CCCC(C(=O)Nc4ccc(OC)c(Cl)c4)C3)c21 (centres unmarked)", "viability at 48 h, 1 µM [%]": 90.7}
{"Compound": "NC1=NC[C@@H](Cc2ccc(O)cc2)N1CCCCC1CCCCC1", "viability at 48 h, 1 µM [%]": 116}
{"Compound": "COc1ccc(-c2oc3ccccc3c2C#Cc2cncn2C)cc1", "viability at 48 h, 1 µM [%]": 112}
{"Compound": "CCCc1cc(=O)oc2cc(C)cc(OCC(=O)NC3CC3)c12", "viability at 48 h, 1 µM [%]": 121}
